// pKi lookup, one value per entry
- System under test: D(4) dopamine receptor (Homo sapiens, UniProt P21917)
- Sequence (P21917 whole entry): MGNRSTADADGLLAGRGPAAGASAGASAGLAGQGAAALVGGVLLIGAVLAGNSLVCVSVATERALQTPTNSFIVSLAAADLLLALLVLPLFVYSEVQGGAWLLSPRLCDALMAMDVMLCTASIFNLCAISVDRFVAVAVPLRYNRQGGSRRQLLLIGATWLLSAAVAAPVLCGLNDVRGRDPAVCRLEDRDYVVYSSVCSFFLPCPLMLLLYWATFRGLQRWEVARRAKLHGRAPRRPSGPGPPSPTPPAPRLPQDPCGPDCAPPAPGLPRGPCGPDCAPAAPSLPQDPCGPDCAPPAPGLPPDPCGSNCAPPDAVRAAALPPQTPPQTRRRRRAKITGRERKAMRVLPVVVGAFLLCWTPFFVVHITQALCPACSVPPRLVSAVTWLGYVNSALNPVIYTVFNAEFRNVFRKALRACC
// pKi is dimensionless: -log10 of concentration (M)

- Compound: "O=C1c2ccccc2C(=O)N1CCCCN1CCN(c2cccc(Cl)c2Cl)CC1"
  Reported endpoint: "pKi"
  Result: 6.43
- Compound: "Fc1ccc(C(OCCN2C3CCC2CC(OC(c2ccc(F)cc2)c2ccc(F)cc2)C3)c2ccc(F)cc2)cc1 (configuration not stated)"
  Reported endpoint: "pKi"
  Result: 6.06
- Compound: "Fc1ccc(C(OC2CC3CCC(C2)N3Cc2cc3ccccc3[nH]2)c2ccc(F)cc2)cc1 (configuration not stated)"
  Reported endpoint: "pKi"
  Result: 6.76
- Compound: "O=C(NCCCN1CCN(c2cccc(Cl)c2Cl)CC1)c1cccc2c1Cc1ccccc1-2"
  Reported endpoint: "pKi"
  Result: 6.49
- Compound: "Fc1ccc(C(OC2CC3CCC(C2)N3Cc2cccc3ccccc23)c2ccc(F)cc2)cc1 (configuration not stated)"
  Reported endpoint: "pKi"
  Result: 6.92

Notebook: Clc1cccc(C(OC2CC3CCC(C2)N3CCCc2ccccc2)c2ccccc2)c1 (configuration not stated) , pKi read as 6.65

Entry under test: CN1C2CCC1CC(OC(c1ccccc1)c1ccc(Cl)cc1)C2 (configuration not stated) . Its pKi was 6.00

In plain terms, `Fc1ccc(C(O[C@H]2C[C@H]3CC[C@@H](C2)N3CCCCc2ccccc2)c2ccc(F)cc2)cc1` has a documented pKi of 7.17

# pKi of Fc1ccc(C(OC2CC3CCC(C2)N3Cc2ccccc2)c2ccc(F)cc2)cc1 (configuration not stated) = 6.19

Record Fc1ccc(C(OC2CC3CCC(C2)N3Cc2ccc(Cl)c(Cl)c2)c2ccc(F)cc2)cc1 (configuration not stated) , field pKi: 6.46

# pKi (compound: `O=C(NCCCN1CCN(c2cccc(Cl)c2Cl)CC1)c1ccc2c(c1)Cc1ccccc1-2` ) is 6.46
